Listed here: items and their measured LDLR Depletion (% inhibition at 75 nM).
Biological target: human PCSK9 (proprotein convertase subtilisin kexin type 9) (human, UniProt Q8NBP7 31-692)
Sequence (Q8NBP7 31-692 limits assumed): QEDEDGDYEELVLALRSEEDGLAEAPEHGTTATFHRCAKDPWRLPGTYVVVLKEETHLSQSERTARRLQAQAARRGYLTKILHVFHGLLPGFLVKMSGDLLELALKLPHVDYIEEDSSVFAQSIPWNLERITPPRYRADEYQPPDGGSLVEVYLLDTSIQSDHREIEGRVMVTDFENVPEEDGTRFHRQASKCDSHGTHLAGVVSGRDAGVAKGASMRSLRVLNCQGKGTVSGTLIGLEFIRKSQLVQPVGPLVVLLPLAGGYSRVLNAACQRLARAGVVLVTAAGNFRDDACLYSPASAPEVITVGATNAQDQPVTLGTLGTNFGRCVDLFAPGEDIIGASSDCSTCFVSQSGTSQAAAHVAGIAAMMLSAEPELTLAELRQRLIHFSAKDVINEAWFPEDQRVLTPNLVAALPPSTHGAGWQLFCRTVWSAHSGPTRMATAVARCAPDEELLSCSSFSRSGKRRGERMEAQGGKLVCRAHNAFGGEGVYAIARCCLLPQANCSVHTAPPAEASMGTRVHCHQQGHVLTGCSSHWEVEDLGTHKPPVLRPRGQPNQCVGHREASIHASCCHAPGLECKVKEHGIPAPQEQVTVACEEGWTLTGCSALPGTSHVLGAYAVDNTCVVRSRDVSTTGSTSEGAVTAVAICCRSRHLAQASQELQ
Assay: cell-based or functional assay

# binder, LDLR Depletion (% inhibition at 75 nM), %
measured = [
    ("2382H04 (designed binder) MGVSDVPRDLEVVAATPTSLLISWDAPAAGGYGYYRITYGETGGNSPVQEFTVPSSKGTATISGLKPGVDYTITVYAVEYDFPGAGYYHRPISINYRTEIDKPSQHHHHHH", 68.2),
    ("2382H11 (designed binder) MGVSDVPRDLEVVAATPTSLLISWDAPADGYGYYRITYGETGGNSPVQEFTVPVFKGTATISGLKPGVDYTITVYAVEFDYPGSGYYHRPISINYRTEIDKPSQHHHHHH", 117),
    ("2382B08 (designed binder) MGVSDVPRDLEVVAATPTSLLISWDAPADAYGYYRITYGETGGNSPVQEFTVPSSKGTATISGLKPGVDYTITVYAVEFAFPGAGYYHRPISINYRTEIDKPSQHHHHHH", 107),
    ("2381D04 (designed binder) MGVSDVPRDLEVVAATPTSLLISWEPFSRLPGGGEYYRITYGETGGNSPLQQFTVPGSKGTATISGLKPGVDYTITVYAVEFPYDHSGYYHRPISINYRTEIDKPSQHHHHHH", 119),
]

Source listed as patent US20120094909A1.
